# Test system: HepG2
# assay.text: Cytotoxicity against human HepG2 cells assessed as inhibition of cell growth by MTT assay
# Assay type: functional, cell-based
experimental.endpoint: pIC50
Please note pIC50 is a logarithmic value: minus log10 of concentration in mol/L. Answer with that number alone.

C=C(C)C(=O)O[C@H]1C/C(C)=C\[C@@]2(c3ccc(O)c(O)c3)C=C(C)[C@@H](O2)[C@H]2OC(=O)C(=C)[C@@H]21 :: 5.24
C=C1C[C@H](OC(=O)C(=C)C)[C@H]2C(=C)C(=O)O[C@@H]2[C@@H]2O[C@@](O)(C1)C[C@@]2(C)OC :: 5.07
C=C(C)C(=O)O[C@H]1C/C(C)=C\[C@@]2(OC)C=C(C)[C@@H](O2)[C@H]2OC(=O)C(=C)[C@@H]21 :: 5.42
C=C1C(=O)O[C@H]2[C@H]1[C@@H](OC(=O)/C(C)=C\C)C/C(C)=C\[C@@]1(OC)C=C(C)[C@H]2O1 :: 5.46
C=C(C)C(=O)O[C@H]1C/C(C)=C\[C@@]2(c3cccc(O)c3O)C=C(C)[C@@H](O2)[C@H]2OC(=O)C(=C)[C@@H]21 :: 5.37
C=C1C[C@H](OC(=O)/C(C)=C/C)[C@H]2C(=C)C(=O)O[C@@H]2[C@@H]2O[C@@](OC)(C1)C[C@@]2(C)O :: 5.01

Look up pIC50: C=C1C[C@H](OC(=O)C(=C)C)[C@H]2C(=C)C(=O)O[C@@H]2[C@@H]2O[C@](OC)(C=C2C)C1
5.66

Request: C=C1C[C@H](OC(=O)C(=C)C)[C@H]2C(=C)C(=O)O[C@@H]2[C@@H]2O[C@@](O)(C1)C[C@@]2(C)O
5.14

Lookup C=C1C[C@H](OC(=O)/C(C)=C/C)[C@H]2C(=C)C(=O)O[C@@H]2[C@@H]2O[C@](OC)(C=C2C)C1
5.42

Same for C=C1C[C@H](OC(=O)/C(C)=C/C)[C@H]2C(=C)C(=O)O[C@@H]2[C@@H]2O[C@@](O)(C1)C[C@@]2(C)O
5.06

###

# Test system: HepG2
# assay.text: Cytotoxicity against human HepG2 cells assessed as inhibition of cell growth by MTT assay
# Type: functional, cell-based
The reader will find reported IC50 values listed item by item below.
Note: unit µM is implicit; provide only the numeric part.

// below: answered compounds
C=C1C(=O)O[C@H]2[C@H]1[C@@H](OC(=O)/C(C)=C/C)C/C(C)=C\[C@@]1(OC)C=C(C)[C@H]2O1 :: 9.7
C=C1C[C@H](OC(=O)C(=C)C)[C@H]2C(=C)C(=O)O[C@@H]2[C@@H]2O[C@@](OC)(C1)C[C@@]2(C)O :: 8.1
C=C1C(=O)O[C@H]2[C@H]1[C@@H](OC(=O)/C(C)=C/C)C/C(C)=C\[C@@]1(c3cccc(O)c3O)C=C(C)[C@H]2O1 :: 4.5

Name the reported IC50 value associated with the compound C=C1C(=O)O[C@H]2[C@H]1[C@@H](OC(=O)/C(C)=C/C)C/C(C)=C\[C@@]1(c3ccc(O)c(O)c3)C=C(C)[C@H]2O1
3

###

# System: HepG2
# assay.text: Cytotoxicity against human HepG2 cells assessed as inhibition of cell growth by MTT assay
# Type: functional, cell-based
Reported IC50 values are given for each entry in this list.

Some solved cases for reference:
C/C=C(/C)C(=O)O[C@H]1C/C(C)=C\[C@@]2(OC)C=C(C)[C@@H](O2)[C@H]2OC(=O)[C@@H](COC)[C@@H]21 :: > 10 µM
C=C(C)C(=O)O[C@H]1C/C(C)=C\[C@@]2(OC)C=C(C)[C@@H](O2)[C@H]2OC(=O)[C@@H](COC)[C@@H]21 :: > 10 µM

Requested field: IC50. Item: C/C=C(\C)C(=O)O[C@H]1C/C(C)=C\[C@@]2(OC)C=C(C)[C@@H](O2)[C@H]2OC(=O)[C@@H](CO)[C@@H]21
> 10 µM
